All values here come from paper PMC11341970.

molecular target: EeAChE (Electrophorus electricus, UniProt O42275); assay: AChE inhibition assay; assay type: biochemical
Sequence (O42275 24-633): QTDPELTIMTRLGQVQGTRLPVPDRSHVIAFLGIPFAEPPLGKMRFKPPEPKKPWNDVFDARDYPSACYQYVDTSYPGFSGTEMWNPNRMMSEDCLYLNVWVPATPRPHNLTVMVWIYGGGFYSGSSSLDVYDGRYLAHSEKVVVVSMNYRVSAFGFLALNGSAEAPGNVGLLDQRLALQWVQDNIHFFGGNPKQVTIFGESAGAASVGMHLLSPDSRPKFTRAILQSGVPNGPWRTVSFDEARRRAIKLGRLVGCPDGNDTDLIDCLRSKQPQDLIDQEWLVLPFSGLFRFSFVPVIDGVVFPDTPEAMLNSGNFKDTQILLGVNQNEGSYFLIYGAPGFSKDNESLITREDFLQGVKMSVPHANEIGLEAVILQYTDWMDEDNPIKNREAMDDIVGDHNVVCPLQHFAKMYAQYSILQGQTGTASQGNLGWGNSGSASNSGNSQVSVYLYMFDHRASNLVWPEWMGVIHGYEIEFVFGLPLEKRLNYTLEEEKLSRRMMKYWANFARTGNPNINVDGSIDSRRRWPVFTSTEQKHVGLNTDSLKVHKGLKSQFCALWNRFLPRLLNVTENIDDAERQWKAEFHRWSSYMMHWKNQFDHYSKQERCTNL
// returns Condition not met unless IC50 is strictly below 60 µM, in which case Condition met

1) [H]/N=C(/N)NN=C(/C=C/c1ccccc1)c1cccn1Cc1ccc([N+](=O)[O-])cc1 [Compound 2l]	Condition met
2) [H]/N=C(/N)NN=C(/C=C/c1ccccc1)c1cccn1Cc1cc(C(F)(F)F)cc(C(F)(F)F)c1 [Compound 2i]	Condition not met
3) [H]/N=C(/N)NN=C(/C=C/c1ccccc1)c1cccn1Cc1ccc(C(C)(C)C)cc1 [Compound 2q]	Condition met
4) [H]/N=C(/N)NN=C(/C=C/c1ccccc1)c1cccn1Cc1ccccc1F [Compound 2g]	Condition not met
5) [H]/N=C(/N)NN=C(/C=C/c1cc(OC)cc(OC)c1)c1cccn1Cc1ccc(C(C)(C)C)cc1 [Compound 3j]	Condition not met
6) [H]/N=C(/N)NN=C(/C=C/c1ccc(C(C)(C)C)cc1)c1cccn1Cc1ccc(C(F)(F)F)cc1 [Compound 3h]	Condition not met
7) [H]/N=C(/N)NN=C(/C=C/c1ccccc1)c1cccn1Cc1cccc(Br)c1 [Compound 2m]	Condition met
8) [H]/N=C(/N)NN=C(/C=C/c1ccc(C(C)(C)C)cc1)c1cccn1Cc1ccc(Br)cc1 [Compound 3i]	Condition not met
9) [H]/N=C(/N)NN=C(/C=C/c1ccccc1)c1cccn1Cc1ccc(CCCC)cc1 [Compound 2j]	Condition met
